- system_under_test: NLRP3 inflammasome (Mus musculus, UniProt Q8R4B8)
- Construct: endogenous in cells; host or cells: primary mouse bone marrow-derived dendritic cells (BMDCs), LPS-primed
- Sequence (Q8R4B8 whole entry): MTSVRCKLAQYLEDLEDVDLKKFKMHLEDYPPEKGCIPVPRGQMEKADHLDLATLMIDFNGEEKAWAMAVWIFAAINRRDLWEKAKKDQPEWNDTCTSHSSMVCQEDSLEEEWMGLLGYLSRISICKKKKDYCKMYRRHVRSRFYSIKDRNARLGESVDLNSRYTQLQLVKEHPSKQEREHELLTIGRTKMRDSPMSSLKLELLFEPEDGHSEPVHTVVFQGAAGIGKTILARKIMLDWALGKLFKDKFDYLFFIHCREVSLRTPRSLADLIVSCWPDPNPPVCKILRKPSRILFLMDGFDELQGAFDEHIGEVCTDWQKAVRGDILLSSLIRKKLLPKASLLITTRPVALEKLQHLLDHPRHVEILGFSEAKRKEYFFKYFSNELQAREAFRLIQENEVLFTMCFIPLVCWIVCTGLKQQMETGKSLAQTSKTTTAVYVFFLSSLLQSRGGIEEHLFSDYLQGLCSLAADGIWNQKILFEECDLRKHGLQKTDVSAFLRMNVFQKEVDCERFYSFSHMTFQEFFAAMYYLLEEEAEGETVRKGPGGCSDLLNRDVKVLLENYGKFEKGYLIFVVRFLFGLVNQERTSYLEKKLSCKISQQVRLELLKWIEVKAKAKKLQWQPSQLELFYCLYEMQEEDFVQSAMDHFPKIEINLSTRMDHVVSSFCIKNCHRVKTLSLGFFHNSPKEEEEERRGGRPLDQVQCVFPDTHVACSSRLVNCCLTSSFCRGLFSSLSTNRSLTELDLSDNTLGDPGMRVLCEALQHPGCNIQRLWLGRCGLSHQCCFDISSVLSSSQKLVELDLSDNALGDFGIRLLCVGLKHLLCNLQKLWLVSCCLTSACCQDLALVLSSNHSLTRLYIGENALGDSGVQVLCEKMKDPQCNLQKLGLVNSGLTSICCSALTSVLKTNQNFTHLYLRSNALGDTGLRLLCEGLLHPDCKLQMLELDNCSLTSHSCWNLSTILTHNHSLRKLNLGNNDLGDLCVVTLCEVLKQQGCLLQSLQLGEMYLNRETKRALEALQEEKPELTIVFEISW
- measurement_notes: IL-1β release from LPS-primed BMDCs (ELISA) as readout of NLRP3 inflammasome activation
- Assay type: cell-based
- test_parameters: IL-1β release; compound 50 μM; positive control nigericin 5 μM
measurement_label: Average (% positive control)

Exercise: Requested field: Average (% positive control). Item: CCCCOC(=O)c1ccc(NC(=O)NC(CC(C)C)c2nc(-c3nnc[nH]3)no2)cc1 (stereo not drawn)
Key: 0.975

Exercise: Recorded Average (% positive control) of O=C(Nc1ccccc1)Nc1ccc(C(=O)N2CCC2)cc1 , please.
Key: 4.638

Exercise: Return reported Average (% positive control); argument: CC(C)C(NC(=O)Nc1ccc(Cl)cc1)c1nc(-c2ccccc2)no1 (stereo not drawn)
Key: 1.765

Exercise: Requested read-out: Average (% positive control). Entry: COc1ccccc1NC(=O)NCc1nc(-c2cccnc2)no1
Key: 3.697

Exercise: Entry O=C(NCc1nc(-c2cccs2)no1)Nc1ccccc1 has what Average (% positive control)?
Key: 3.589

Exercise: Looking for the measured Average (% positive control) of Cc1cccc(-c2noc(CN3C(=O)CN(c4ccccc4)C3=O)n2)c1 , can you help?
Key: 1.941

Exercise: Fill blank: measured Average (% positive control) of the compound O=C(Nc1ccccc1)Nc1cccc(Br)c1 is ____.
Key: 3.256

P. O=C(Nc1ccccc1)Nc1cccc(OC(F)F)c1
Q. Cc1ccc(N2C(=O)N(Cc3nc(-c4ccc(F)cc4)no3)C(=O)C2C)cc1 (stereo not drawn)
R. CC(=NO)c1ccc(NC(=O)Nc2ccccc2)cc1
S. CCc1ccc(Cl)c(CC)c1NC(=O)NC(c1nc(-c2cccnc2)no1)C(C)C (stereo not drawn)
T. COc1ccc(NC(=O)NCc2nc(Cc3ccccc3)no2)cc1
Exercise: Ascending by Average (% positive control), please: list the compounds accordingly. // list labels; follow requested order
Key: T, R, P, Q, S
